experiment: NALP1 inflammasome inhibitors in reconstituted yeast, colorimetric, S. cerevisiae, triplicate retest (AID 2071); details: S. cerevisiae NALP1/ASC/caspase-1 growth, X-gal OD620, 72 h; at 10 µM unless noted
Screen size: about 280,000 compounds; about 1,700 (0.61%) were called active. No stated cut-off is given here; in the data, active means inhibition mostly above about 24% (no sharp cut-off); inactive means mostly below about 32%. For the sample, actives were picked, then their nearest neighbours and some compounds at random.
Labels: active, inactive

* Cc1cc(NC(=O)c2ccccc2C)no1 | inactive
* COC(=O)c1cc(C(=O)OC)cc(N2C(=O)CC(N3CCN(c4ccccc4)CC3)C2=O)c1 (configuration not stated) | inactive
* Cc1ccc2nc(NC(=O)C3CCN(S(=O)(=O)c4ccc5c(c4)oc(=O)n5C)CC3)sc2c1 | inactive
* COc1ccc(C(=O)/C=C/c2cccnc2)c(OC)c1 | inactive
* CCc1noc(C)c1C(=O)N1CCCC(N2CCN(c3ccc(F)cc3)CC2)C1 (configuration not stated) | inactive
* Cc1[nH]n(C(N)=S)c(=O)c1N=Nc1ccc(Cl)cc1Cl | inactive
* COc1cc(C2C(C(=O)c3ccc(C)o3)=C(O)C(=O)N2Cc2cccnc2)ccc1O (configuration not stated) | inactive
* Oc1c(Cl)cc(Cl)cc1/C=N/c1ncn[nH]1 | inactive
* O=C(CCCN1C(=O)/C(=C/c2cccs2)SC1=S)Nc1ccc(O)cc1 | inactive
* CCOc1c2ccc(C(=O)NCc3ccc4c(c3)OCO4)cc2nn1C | inactive
* CN(C)CCCN(C(=O)COc1ccccc1)c1nc2c(Cl)cccc2s1 | inactive
* CCN1C(=NCC(C)C)N[C@@H](CCc2ccccc2)[C@H](C(=O)NCC(C)C)[C@H]1C | inactive
* Cc1ccc(-n2c(SCC(=O)NCCC3=CCCCC3)nc3n[nH]c(C)c3c2=N)cc1Cl | active
* O=C(CCS(=O)(=O)c1cccc2nsnc12)N1CCN(c2ccccc2F)CC1 | active
* Cn1c(CC(=O)Nc2ccccc2)nnc1SCC(=O)c1ccccc1 | inactive
* Cc1cccc(C)c1NC(=O)C(c1ccccc1)N1CC(=O)Nc2ccccc21 (configuration not stated) | inactive
* CCOc1cc(/C=C/c2nc3ccccc3c(=O)[nH]2)cc(Br)c1OC | inactive
* Cc1ccc(NS(=O)(=O)c2ccc(-c3coc(C)n3)cc2)c(C)c1 | inactive
* CCOCCCNC(=O)C(NC(=O)CNC(=O)c1ccccc1)c1ccc(OC)cc1 (configuration not stated) | inactive
* Cn1c(CSCC(=O)Nc2ccccc2)nnc1SCc1ccccc1 | active
* COc1cccc2sc(N(CCCN(C)C)C(=O)CCS(=O)(=O)c3ccccc3)nc12 | inactive
* Cn1c(=O)oc2cc(S(=O)(=O)N3CCC(C(=O)Nc4ccc(OC(F)(F)F)cc4)CC3)ccc21 | active
* Cc1cccc(C)c1NC(=O)N1CC(C)OC(C)C1 (configuration not stated) | inactive
* O=C(CCCCCn1c(=S)[nH]c2ccsc2c1=O)NC1CCCCC1 | inactive
* CCCn1nc2cc(C(=O)NCc3ccccc3)ccc2c1OCC | active
* C/C(=N\NC(=O)C1(C)CC1(Br)Br)c1ccc(C)cc1C (configuration not stated) | inactive
* CCOCCCNC(=O)C(NC(=O)CNC(=O)c1ccccc1)c1ccc(C)cc1 (configuration not stated) | active
* CC/C(=N\NC(=O)c1c(C)nc2ccccn12)c1ccc(Cl)cc1 | inactive
* CC(C)CC(=O)N1CCN(Cc2cccc(Cl)c2)CC1 | inactive
* COc1ccc(C2C(C(C)=O)=C(O)C(=O)N2Cc2cccnc2)cc1 (configuration not stated) | active
* CCC(NC(=O)c1cc(COc2ccc(F)c(F)c2)on1)c1ccncc1 (configuration not stated) | inactive
* CC(C)CCNC(=O)c1ccc2c(Cl)c3c(nc2c1)CCC3 | inactive

---

experiment: NALP1 inflammasome inhibitors in reconstituted yeast, colorimetric, S. cerevisiae, triplicate retest (AID 2071); details: S. cerevisiae NALP1/ASC/caspase-1 growth, X-gal OD620, 72 h; at 10 µM unless noted
The whole screen tested about 280,000 compounds, of which about 1,700 (0.61%) were called active. Cut-off read from the data, not from the text of the source: active = inhibition mostly above about 24% (no sharp cut-off); inactive = mostly below about 32%. For the sample, actives were picked, then their nearest neighbours and some compounds at random.
Labels: true (1) for active, false (0) for inactive

* COc1cc(C(=O)NC2CCN(Cc3ccccc3)CC2)cc(Cl)c1OC(C)C | false (0)
* CN(C)c1ccc(-c2nnc(-c3cccnc3)o2)cc1 | false (0)
* CC(C)(C)c1ccc(/C=C/C(=O)NCCCn2ccnc2)cc1 | false (0)
* CC(C)N1C(=S)SC(C)(C)C1n1oc(=O)n(-c2ccc(Cl)c(Cl)c2)c1=O (stereo not drawn) | false (0)
* O=C(COc1ccc(Cl)cc1)N1CCN(c2cccc(C(F)(F)F)c2)CC1 | false (0)
* COc1cc2[nH]c(=O)n(Cc3ccc(C(=O)NC4CCN(Cc5ccccc5)CC4)cc3)c(=O)c2cc1OC | true (1)
* Cc1cc(N=Nc2ccc3ccccc3c2)ccc1O | false (0)
* O=C(C1CC(=O)N(C2CCCCC2)C1)N1CCN(c2ccccc2)CC1 (stereo not drawn) | false (0)
* COc1cccc(CNCCc2c[nH]c3ccccc23)c1OCc1ccccc1F | false (0)
* CCCn1c(CCNc2nc(-c3ccc(OC)cc3)cs2)nc2ccccc21 | false (0)
* S=C(NCCCc1ccccc1)Nc1ccc(Br)cc1 | false (0)
* O=C(NC(=O)c1ccccc1)NC(=O)c1ccccc1 | false (0)
* COc1ccc(CCN=C2SCC(=O)N2C)cc1OC | false (0)
* Cn1cccc1C(=O)N1CCc2ccccc2C1 | false (0)
* O=C(NC1CCCC1)c1cc(-c2ccccc2)on1 | false (0)
* N#Cc1ccc(C(=O)Nc2cccc3cccnc23)c(F)c1 | true (1)
* CCNC(=O)Nc1ccc(S(=O)(=O)Nc2cnc(C)nc2C)cc1 | false (0)
* CCn1c(=O)c(C(=O)NCc2ccc3c(c2)OCO3)c(O)c2ccccc21 | false (0)
* CCOC(=O)CSc1nc2ccc(C)cc2n2cnnc12 | false (0)
* COc1ccc(NC(=O)CNC(=O)Cc2ccccc2)cc1OC | false (0)
* C=CCNC(=S)N1CCc2[nH]c3ccccc3c2C1 | true (1)
* COc1cc(/C=C/C(=O)N2CCc3ccccc3C2)cc(OC)c1OC | false (0)
* Fc1ccc(NC(=S)N2CCc3[nH]c4ccccc4c3C2)cc1 | false (0)
* COc1cccc(C(C(=O)NC2CCCC2)N(C(=O)c2ccco2)c2cccc(C(C)=O)c2)c1OC (stereo not drawn) | false (0)
* COc1ccc(CC(=O)NC(C)CCc2ccccc2)cc1 (stereo not drawn) | false (0)
* Cc1ccc(/C=N/NC(=O)c2cc3ccccc3cc2O)o1 | false (0)
* O=C(C1=C[C@H](C2CC2)C[C@H](OCc2ccc(CO)cc2)O1)N1CCN(Cc2ccccc2)CC1 | false (0)
* CC(C)Sc1ncnc2c1cnn2-c1ccccc1 | false (0)
* O=C(Nc1cccc2cccnc12)c1cccc(N2C(=O)CCC2=O)c1 | false (0)
* CCC(=O)c1cn(CCOc2ccccc2OC)c2ccccc12 | false (0)
* O=C(NCc1ccccc1)C(=O)NCC1OCCN1S(=O)(=O)c1ccc(Br)cc1 (stereo not drawn) | false (0)
* O=C(Nc1cccc2cccnc12)c1cccc(Cl)c1 | false (0)
* COc1ccc(NS(=O)(=O)c2ccc(NC(C)=O)cc2)cc1OC | false (0)
* COc1ccc(C(=O)Nc2ccnn2C2CCN(Cc3ccncc3)CC2)cc1 | false (0)
* Cc1ccc(CCn2c3c(c4ccccc42)CN(C)CC3)cn1 | true (1)
* CC(=O)N1c2ccc(S(=O)(=O)N3CCCC(C(=O)NCc4ccc(Cl)cc4)C3)cc2CC1C (stereo not drawn) | false (0)
* COc1ccc(/C=C2\SC(=S)N(CCCC(=O)NC3CCCC3)C2=O)cc1OC | false (0)
* COc1ccc(C(=O)/C=C/c2ccc(-c3ccccc3)cc2)cc1CSCC(=O)O | false (0)

---

assay: NALP1 inflammasome inhibitors in reconstituted yeast, colorimetric, S. cerevisiae, triplicate retest (AID 2071); conditions: S. cerevisiae NALP1/ASC/caspase-1 growth, X-gal OD620, 72 h, hits give high values; at 10 µM unless noted
Screen size: about 280,000 compounds; about 1,700 (0.61%) were called active. The sample as a whole holds a higher share of actives than the screen did.
The compounds listed here are annotated with their inhibition.
ASSAY ENDPOINT: inhibition (%)

* N#Cc1c(NC(=O)CSc2nc3ccccc3c(=O)n2Cc2ccco2)sc2c1CCCC2 | 20.7
* COc1cc(-c2c(-c3ccc4c(c3)OCO4)noc2C)ccc1F | 3.9
* CCCn1c(C2CCCN2c2nc(-c3ccc(OC)cc3)cs2)nc2ccccc21 (configuration not stated) | 21.7
* O=C(CSc1ncnc2c1oc1ccccc12)NC1CCCC1 | 15.8
* CCc1ccc(/C=N/NC(=O)c2nnn(-c3nonc3N)c2CN2CCc3ccccc32)cc1 | 0
* CCN1/C(=C/C(=S)Nc2ccccc2)Sc2ccccc21 | 27.1
* O=C(Cc1ccc(F)cc1)NC1CCCC1 | 9.3
* O=C(NCc1ccc(Cl)cc1)C1CCN(S(=O)(=O)c2cccs2)CC1 | 4
* O=C(Nc1ccc(NC(=O)c2cccs2)cn1)c1ccco1 | -12.5
* COc1cccc(OCC(=O)Nc2ccccc2C(N)=O)c1 | 1.7
* CCc1ccc(Nc2nnc(SCC(=O)c3ccc4c(c3)NC(=O)CO4)s2)cc1 | 39.5
* CCCc1nc2ccccc2c(C(=O)OCC(=O)c2ccc3c(c2)NC(=O)CO3)c1CC | -1.4
* Cn1c(CCN2CCCCCC2)nc2cc(NC(=O)Nc3ccccc3)ccc21 | 19.6
* CN(C(=O)c1cc2c(=O)n3ccccc3nc2s1)C1CCCCC1 | 4.6
* CC(=O)c1ccc(NC(=S)NC(=O)CC(C)C)cc1 | 27.8
* C/C(=N\NC(=O)COc1ccc(C)cc1[N+](=O)[O-])c1ccc2c(c1)OCCO2 | 12
* COc1cc(Br)c(-c2sc(Nc3ccccc3)n[n+]2-c2ccccc2)cc1OC | -1.9
